Where do the numbers come from? From patent US20120135923A1.

molecular target: hMC1-R (Homo sapiens, UniProt Q01726); construct: expressed in transfected cells; host or cells: CHO-K1; test: cyclic AMP bioassay (ECL) in CHO-K1 cells; assay type: cell-based; details: Table 9A/9B; read-out: EC50 hMC1-R
Sequence (Q01726 whole entry): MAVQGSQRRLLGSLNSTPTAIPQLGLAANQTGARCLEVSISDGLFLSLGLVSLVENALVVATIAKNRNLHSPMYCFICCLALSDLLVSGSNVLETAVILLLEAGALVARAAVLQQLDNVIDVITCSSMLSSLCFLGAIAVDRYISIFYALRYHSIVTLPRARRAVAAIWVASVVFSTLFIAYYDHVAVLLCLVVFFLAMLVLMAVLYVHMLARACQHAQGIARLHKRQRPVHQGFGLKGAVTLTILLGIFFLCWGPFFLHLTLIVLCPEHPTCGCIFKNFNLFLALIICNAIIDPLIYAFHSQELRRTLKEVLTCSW
Bridge positions count the residues as written; N and C are the ends. Square brackets hold non-standard residues; d marks the D form. Peptide text beside a SMILES is read from it. Nle = CCCC[C@H](N)C(=O)O; GABA = NCCCC(=O)O
Attribute Measured: EC50
The answer should read as a number with its unit following.

# Molecule, EC50
records = [
    ("CCCC[C@H](NC(C)=O)C(=O)N[C@H]1CC(=O)NCCCC[C@@H](C(N)=O)NC(=O)CCNC(=O)[C@H](Cc2c[nH]c3ccccc23)NC(=O)[C@H](CCCNC(=N)N)NC(=O)[C@@H](Cc2ccccc2)NC(=O)[C@H](Cc2c[nH]cn2)NC1=O", "0.834 nM"),
]

Kindly review the next molecule as well.
EC50 lookup needed for CCCC[C@H](N)C(=O)N[C@H]1CSSC[C@@H](C(N)=O)NC(=O)CCCNC(=O)[C@H](Cc2c[nH]c3ccccc23)NC(=O)[C@H](CCCNC(=N)N)NC(=O)[C@@H](Cc2ccccc2)NC(=O)[C@H](Cc2c[nH]cn2)NC1=O (H-[Nle]CH[dF]RW[GABA]C-NH2; disulfide 2-8) , thanks.
0.37 nM

###

Reported EC50 values follow for various compounds
target: hMC5-R (Homo sapiens); construct: expressed in transfected cells; host or cells: CHO-K1; test: cyclic AMP bioassay (ECL) in CHO-K1 cells; type: cell-based; conditions: Table 9A/9B; read-out: EC50 hMC5-R
Sequence (P33032 whole entry): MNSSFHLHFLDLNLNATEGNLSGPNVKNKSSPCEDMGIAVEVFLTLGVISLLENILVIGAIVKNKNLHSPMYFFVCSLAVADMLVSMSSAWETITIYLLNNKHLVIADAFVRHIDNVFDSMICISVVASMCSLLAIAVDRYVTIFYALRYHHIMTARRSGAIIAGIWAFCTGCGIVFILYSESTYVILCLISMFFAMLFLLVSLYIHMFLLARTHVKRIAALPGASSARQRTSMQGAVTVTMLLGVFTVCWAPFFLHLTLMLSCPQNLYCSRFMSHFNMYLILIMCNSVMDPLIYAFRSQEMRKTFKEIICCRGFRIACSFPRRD
Bridge positions count the residues as written; N and C are the ends. Square brackets hold non-standard residues; d marks the D form. Peptide text beside a SMILES is read from it. hArg = N=C(N)NCCCC[C@H](N)C(=O)O; Nle = CCCC[C@H](N)C(=O)O; Ava = NCCCCC(=O)O; βAla = NCCC(=O)O
The answer is to be given in nM; state only the numeric part.

Example compounds with recorded EC50:
# Compound, Unit Abbreviation, EC50
data = [
    ("CCCC[C@H](N)C(=O)N[C@H]1CSSC[C@@H](C(N)=O)NC(=O)CCCCNC(=O)[C@H](Cc2c[nH]c3ccccc23)NC(=O)[C@H](CCCNC(=N)N)NC(=O)[C@@H](Cc2ccccc2)NC(=O)[C@H](Cc2c[nH]cn2)NC1=O [Nle-c(Cys-His-D-Phe-Arg-Trp-Apn-Cys)-NH2] (H-[Nle]CH[dF]RW[Ava]C-NH2; disulfide 2-8)", "nM", 3.1),
    ("CCOc1ccc(C[C@H]2NC(=O)[C@H](Cc3c[nH]cn3)NC(=O)[C@@H](NC(=O)[C@H](N)Cc3ccccc3)CSSC[C@H](C(=O)N[C@H](C(N)=O)[C@@H](C)O)NC(=O)CCNC(=O)[C@H](Cc3c[nH]c4ccccc34)NC(=O)[C@H](CCCNC(=N)N)NC2=O)cc1 (H-[dF]CH[dY](Et)RW[βAla][dC]T-NH2; disulfide 2-8)", "nM", 0.37),
    ("CCCC[C@H](NC(C)=O)C(=O)N[C@H]1CC(=O)NCCCC[C@@H](C(N)=O)NC(=O)CCNC(=O)[C@H](Cc2c[nH]c3ccccc23)NC(=O)[C@H](CCCNC(=N)N)NC(=O)[C@@H](Cc2ccccc2)NC(=O)[C@H](Cc2c[nH]cn2)NC1=O", "nM", 2.79),
]

Kindly review the next compound as well.
EC50 lookup needed for CCOc1ccc(C[C@H]2NC(=O)[C@H](Cc3c[nH]cn3)NC(=O)[C@@H](NC(=O)[C@H](N)Cc3ccccc3)CSSC[C@H](C(=O)N[C@H](C(N)=O)[C@@H](C)O)NC(=O)CCNC(=O)[C@H](Cc3c[nH]c4ccccc34)NC(=O)[C@H](CCCCNC(=N)N)NC2=O)cc1 (H-[dF]CH[dY](Et)[hArg]W[βAla][dC]T-NH2; disulfide 2-8) , thanks.
2.38

###

Reported pKi values follow for various compounds
target: hMC3-R (Homo sapiens); construct: expressed in transfected cells; host or cells: CHO-K1; assay: Radioligand binding assay, [125I]-NDP-α-MSH competition, CHO-K1 membranes; conditions: Table 5; read-out: Ki hMC3-R
Sequence (P41968 whole entry): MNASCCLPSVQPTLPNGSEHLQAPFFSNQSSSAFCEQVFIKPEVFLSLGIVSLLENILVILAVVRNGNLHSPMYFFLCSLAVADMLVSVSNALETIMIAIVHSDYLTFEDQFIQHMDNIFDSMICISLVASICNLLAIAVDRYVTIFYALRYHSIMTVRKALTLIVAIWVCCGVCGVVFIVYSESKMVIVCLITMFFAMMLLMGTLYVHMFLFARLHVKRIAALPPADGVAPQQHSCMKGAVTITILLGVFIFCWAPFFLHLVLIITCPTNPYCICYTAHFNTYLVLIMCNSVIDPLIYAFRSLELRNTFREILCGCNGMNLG
Bridge positions count the residues as written; N and C are the ends. Square brackets hold non-standard residues; d marks the D form. Peptide text beside a SMILES is read from it. Bip = N[C@@H](Cc1ccc(-c2ccccc2)cc1)C(=O)O; d2Nal = N[C@H](Cc1ccc2ccccc2c1)C(=O)O; hArg = N=C(N)NCCCC[C@H](N)C(=O)O; Pen = CC(C)(S)[C@H](N)C(=O)O; Nle = CCCC[C@H](N)C(=O)O; Ahx = NCCCCCC(=O)O; GABA = NCCCC(=O)O; βAla = NCCC(=O)O
Please keep in mind that pKi is minus log10 of the molar concentration; only the number is needed.

# Compound, pKi
records = [
    ("CCCC[C@H](NC(C)=O)C(=O)N[C@H]1CSSC[C@@H](C(N)=O)NC(=O)[C@H](Cc2c[nH]c3ccccc23)NC(=O)[C@H](CCCNC(=N)N)NC(=O)[C@@H](Cc2ccccc2)NC(=O)[C@H](Cc2c[nH]cn2)NC(=O)[C@@H](CC2CCCCC2)NC1=O", 8.68),
    ("C[C@@H](O)[C@H](NC(=O)[C@H]1CSSC[C@H](NC(=O)[C@H](N)Cc2ccccc2)C(=O)N[C@@H](Cc2c[nH]cn2)C(=O)N[C@H](Cc2ccccc2)C(=O)N[C@@H](CCCNC(=N)N)C(=O)N[C@@H](Cc2c[nH]c3ccccc23)C(=O)NCCC(=O)N1)C(N)=O (H-[dF]CH[dF]RW[βAla][dC]T-NH2; disulfide 2-8)", 7.36),
    ("C[C@@H](O)[C@H](NC(=O)[C@H]1CSSC[C@H](NC(=O)[C@H](N)Cc2ccccc2)C(=O)N[C@@H](Cc2c[nH]cn2)C(=O)N[C@H](Cc2ccccc2)C(=O)N[C@@H](CCCCNC(=N)N)C(=O)N[C@@H](Cc2ccc(-c3ccccc3)cc2)C(=O)NCCC(=O)N1)C(N)=O (H-[dF]CH[dF][hArg][Bip][βAla][dC]T-NH2; disulfide 2-8 (inferred))", 5.90),
    ("CCCC[C@H](NC(C)=O)C(=O)N[C@H]1CSSC[C@@H](C(N)=O)NC(=O)CCCCCNC(=O)[C@H](Cc2c[nH]c3ccccc23)NC(=O)[C@H](CCCNC(=N)N)NC(=O)[C@@H](Cc2ccc3ccccc3c2)NC(=O)[C@H](Cc2c[nH]cn2)NC1=O (Ac-[Nle]CH[d2Nal]RW[Ahx]C-NH2; disulfide 2-8 (inferred))", 8.54),
    ("CCOc1ccc(C[C@H]2NC(=O)[C@H](Cc3c[nH]cn3)NC(=O)[C@@H](NC(=O)[C@H](N)Cc3ccccc3)CSSC[C@H](C(=O)N[C@H](C(N)=O)[C@@H](C)O)NC(=O)CCNC(=O)[C@H](Cc3c[nH]c4ccccc34)NC(=O)[C@H](CCCNC(=N)N)NC2=O)cc1 (H-[dF]CH[dY](Et)RW[βAla][dC]T-NH2; disulfide 2-8)", 8.03),
]

Short answer please: pKi, hMC3-R (Homo sapiens), entry C[C@@H](O)[C@H](NC(=O)[C@H]1CSSC[C@H](NC(=O)[C@H](N)Cc2ccccc2)C(=O)N[C@@H](Cc2c[nH]cn2)C(=O)N[C@H](Cc2ccccc2)C(=O)N[C@@H](CCCNC(=N)N)C(=O)N[C@@H](Cc2c[nH]c3ccccc23)C(=O)NCCCC(=O)N1)C(N)=O (H-[dF]CH[dF]RW[GABA][dC]T-NH2; disulfide 2-8)
6.97

Then CCCC[C@H](NC(C)=O)C(=O)N[C@@H]1C(=O)N[C@@H](Cc2c[nH]cn2)C(=O)N[C@H](Cc2ccccc2)C(=O)N[C@@H](CCCNC(=N)N)C(=O)N[C@@H](Cc2c[nH]c3ccccc23)C(=O)NCCCC(=O)N[C@H](C(N)=O)CSSC1(C)C (Ac-[Nle][Pen]H[dF]RW[GABA]C-NH2; disulfide 2-8 (inferred)) ?
7.06

Then CC(=O)N[C@@H](CC1CCCCC1)C(=O)N[C@H]1CC(=O)NCCCC[C@@H](C(N)=O)NC(=O)CCCNC(=O)[C@H](Cc2c[nH]c3ccccc23)NC(=O)[C@H](CCCNC(=N)N)NC(=O)[C@@H](Cc2ccc3ccccc3c2)NC(=O)[C@H](Cc2c[nH]cn2)NC1=O ?
8.40

###

molecular target: hMC5-R (Homo sapiens); construct: expressed in transfected cells; host or cells: CHO-K1; experiment: cyclic AMP bioassay (ECL) in CHO-K1 cells; format: cell-based; settings: Table 9A/9B; read-out: EC50 hMC5-R
Bridge positions count the residues as written; N and C are the ends. Square brackets hold non-standard residues; d marks the D form. Peptide text beside a SMILES is read from it. Pen = CC(C)(S)[C@H](N)C(=O)O; GABA = NCCCC(=O)O
Reported pEC50 values follow for various molecules
Please keep in mind that pEC50 is minus log10 of the molar concentration; only the number is needed.

# Molecule, Target Entity, pEC50
records = [
    ("CC(=O)N[C@H](CCCNC(=N)N)C(=O)N[C@H]1CSSC(C)(C)[C@@H](C(N)=O)NC(=O)CCCNC(=O)[C@H](Cc2c[nH]c3ccccc23)NC(=O)[C@H](CCCNC(=N)N)NC(=O)[C@@H](Cc2ccccc2)NC(=O)[C@H](Cc2c[nH]cn2)NC1=O (Ac-[dR]CH[dF]RW[GABA][Pen]-NH2; disulfide 2-8 (inferred))", "hMC5-R (Homo sapiens)", 5.67),
]

Kindly review the next molecule as well.
pEC50 lookup needed for CC(=O)N[C@@H](CCC1CCCCC1)C(=O)N[C@H]1CC(=O)NCCCC[C@@H](C(N)=O)NC(=O)CCCNC(=O)[C@H](Cc2c[nH]c3ccccc23)NC(=O)[C@H](CCCNC(=N)N)NC(=O)[C@@H](Cc2ccccc2)NC(=O)[C@H](Cc2c[nH]cn2)NC1=O , thanks.
6.38
